Data credit: ChEMBL document CHEMBL4613225

assay_text: Permeability in MDCK-MDR1 cells at 5 uM after 1 hr by LC-MS/MS analysis
Assay type: ADME, cell-based, Canis lupus familiaris
reported_conditions: dog, read-out: permeability
Measured Papp at 1 h, 5 µM by item
experimental_endpoint: Papp at 1 h, 5 µM

test_smiles	test_value
C[C@@H]1C[C@H]1CNC(=O)[C@@H]1C[C@H]1[C@]12CN(c3ncccn3)C[C@H]1CSC(N)=N2	8 ×10⁻⁶ cm/s
C[C@@H]1C[C@H]1COC(C)(C)[C@@H]1C[C@H]1[C@]12CN(c3ncccn3)C[C@H]1CSC(N)=N2	36 ×10⁻⁶ cm/s

----------
assay_text: Metabolic stability in dog liver microsomes assessed as metabolized drug level after 30 mins in presence of NADPH by LC-MS/MS analysis
Format: ADME, Canis lupus familiaris, Microsome
reported_conditions: read-out: Drug metabolism

test_smiles	metabolised at 0.5 h / %
C[C@@H]1C[C@H]1COC(C)(C)[C@@H]1C[C@H]1[C@]12CN(c3ncccn3)C[C@H]1CSC(N)=N2	79
C[C@@H]1C[C@H]1CNC(=O)[C@@H]1C[C@H]1[C@]12CN(c3ncccn3)C[C@H]1CSC(N)=N2	28

----------
assay_text: Ratio of unbound fraction in PDAPP V717F transgenic mouse brain to plasma at 100 mg/kg, sc
Assay type: ADME, organism-based
reported_conditions: read-out: K(p,uu,brain)

test_smiles	Kp uu
C[C@@H]1C[C@H]1COC(C)(C)[C@@H]1C[C@H]1[C@]12CN(c3ncccn3)C[C@H]1CSC(N)=N2	0.16

----------
assay_text: Drug level in PDAPP V717F transgenic mouse plasma at 100 mg/kg, sc
Assay type: ADME, organism-based
reported_conditions: in vivo

test_smiles	concentration / nM
C[C@@H]1C[C@H]1COC(C)(C)[C@@H]1C[C@H]1[C@]12CN(c3ncccn3)C[C@H]1CSC(N)=N2	815

----------
assay_text: Drug level in PDAPP V717F transgenic mouse plasma at 10 mg/kg, sc
Type: ADME, organism-based
reported_conditions: in vivo
experimental_endpoint: concentration (nM)

test_smiles	experimental_endpoint	test_value
C[C@@H]1C[C@H]1COC(C)(C)[C@@H]1C[C@H]1[C@]12CN(c3ncccn3)C[C@H]1CSC(N)=N2	concentration	133

----------
assay_text: Ratio of unbound fraction in PDAPP V717F transgenic mouse brain to plasma at 30 mg/kg, sc
Format: ADME, organism-based
reported_conditions: read-out: K(p,uu,brain)
experimental_endpoint: Kp uu

test_smiles	test_value
C[C@@H]1C[C@H]1COC(C)(C)[C@@H]1C[C@H]1[C@]12CN(c3ncccn3)C[C@H]1CSC(N)=N2	0.17

----------
assay_text: Drug level in PDAPP V717F transgenic mouse brain at 100 mg/kg, sc
Format: ADME, organism-based
reported_conditions: in vivo, read-out: Ct

test_smiles	concentration (nM)
C[C@@H]1C[C@H]1COC(C)(C)[C@@H]1C[C@H]1[C@]12CN(c3ncccn3)C[C@H]1CSC(N)=N2	389
